Reported signal change in competition ELISA (% reduction in OD) values for a set of binders
Molecular target: pre-existing anti-scFv903 antibodies in human serum H135 (human)
Test: competition ADA bridging ELISA
Write the value in % as a bare number.

binder	readout_value
scFv 903 (scFv) scFv: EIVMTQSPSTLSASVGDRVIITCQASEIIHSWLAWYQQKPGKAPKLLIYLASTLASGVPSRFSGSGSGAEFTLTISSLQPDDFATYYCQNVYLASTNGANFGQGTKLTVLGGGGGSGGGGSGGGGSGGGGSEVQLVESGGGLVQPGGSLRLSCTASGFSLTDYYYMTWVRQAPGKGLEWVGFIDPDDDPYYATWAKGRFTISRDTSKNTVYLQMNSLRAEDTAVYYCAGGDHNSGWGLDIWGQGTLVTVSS	-93

Dear colleague, please send me the reported signal change in competition ELISA (% reduction in OD) for scFv 791 (scFv) scFv: MEIVMTQSPSTLSASLGDRVIITCQSSQSVYGNIWMAWYQQKSGKAPKLLIYQASKLASGVPSRFSGSGSGAEFSLTISSLQPDDFATYYCQGNFNTGDRYAFGQGTKLTVLGGGGGSGGGGSGGGGSGGGGSEVQLVESGGGLVQPGGSLRLSCTASGFTISRSYWICWVRQAPGKGLEWVACIYGDNDITPLYANWAKGRFPVSTDTSKNTVYLQMNSLRAEDTAVYYCARLGYADYAYDLWGQGTLVTVSS when you can. -95

In one line, give reported signal change in competition ELISA (% reduction in OD) of the entry scFv 961 (scFv) scFv: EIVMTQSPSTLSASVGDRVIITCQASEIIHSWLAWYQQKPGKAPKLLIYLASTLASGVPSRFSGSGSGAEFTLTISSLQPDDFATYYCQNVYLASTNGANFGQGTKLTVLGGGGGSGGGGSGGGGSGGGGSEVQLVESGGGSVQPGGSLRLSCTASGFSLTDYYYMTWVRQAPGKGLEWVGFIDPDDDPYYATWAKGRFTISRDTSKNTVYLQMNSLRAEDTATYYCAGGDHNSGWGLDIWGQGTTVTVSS . -75

Supply reported signal change in competition ELISA (% reduction in OD) belonging to this binder: scFv105 (scFv) scFv: DIVMTQSPSSLSASVGDRVTLTCTASQSVSNDVVWYQQRPGKAPKLLIYSAFNRYTGVPSRFSGRGYGTDFTLTISSLQPEDVAVYYCQQDYNSPRTFGQGTKLEVKRGGGGSGGGGSGGGGSSGGGSQVQLVQSGAEVKKPGASVKVSCTASGYTFTHYGMNWVRQAPGKGLEWMGWINTYTGEPTYADKFKDRFTFSLETSASTVYMELTSLTSDDTAVYYCARERGDAMDYWGQGTLVTVSS -23
